tested on: Hepatotoxicity; assay: FDA HLAED, serum glutamic pyruvic transaminase (SGPT) increase; conditions: human
Numbered stars: 1 amine (or outer) side, 2 acyl side, 3 side chain; on linkers, the order of the positions; unused ones are H or OH. Bridge positions count the residues as written; N and C are the ends. Square brackets hold non-standard residues; d marks the D form. Peptide text beside a SMILES is read from it. I, II: the chains in the order shown. Actinocin(9to1) = Cc1c2oc3c(C)ccc(C(=O)[*:1])c3nc-2c(C(=O)[*:2])c(N)c1=O; NMeV = CN[C@H](C(=O)O)C(C)C; Sar = CNCC(=O)O
property.measured: SGPT Increase - Activity Score

A selection of reference data follows.
compound=COc1cccc2c1C(=O)c1c(O)c3c(c(O)c1C2=O)C[C@@](O)(C(C)=O)C[C@@H]3O[C@H]1C[C@H](N)[C@H](O)[C@H](C)O1 reading=Inactive
compound="CN1C2CCCC1CC(NC(=O)c1nn(C)c3ccccc13)C2 (stereo unspecified)" reading=Inactive
compound="Cc1c2oc3c(C)ccc(C(=O)N[C@@H]4C(=O)N[C@H](C(C)C)C(=O)N5CCC[C@H]5C(=O)N(C)CC(=O)N(C)[C@@H](C(C)C)C(=O)O[C@@H]4C)c3nc-2c(C(=O)N[C@@H]2C(=O)N[C@H](C(C)C)C(=O)N3CCC[C@H]3C(=O)N(C)CC(=O)N(C)[C@@H](C(C)C)C(=O)O[C@@H]2C)c(N)c1=O [DACTINOMYCIN] (I: T[dV]P[Sar][NMeV] / II: T[dV]P[Sar][NMeV]; ester I:1-I:C, II:1-II:C; linker I:N-II:N via Actinocin(9to1))" reading=Active
compound="CC(=O)N(CC(O)CN(C(C)=O)c1c(I)c(C(=O)NCC(O)CO)c(I)c(C(=O)NCC(O)CO)c1I)c1c(I)c(C(=O)NCC(O)CO)c(I)c(C(=O)NCC(O)CO)c1I (stereo unspecified)" reading=Inactive

Turning to the following compound.
// lookup SGPT Increase - Activity Score for `COc1cc(C(=O)NS(=O)(=O)c2ccccc2C)ccc1Cc1cn(C)c2ccc(NC(=O)OC3CCCC3)cc12` Active
